src = the Biogen ADME set (Fang et al. 2023)

readoutLabel: fraction unbound, human plasma

(P) Cc1ncc(CN2CC[C@@H](Nc3cncc(Cl)n3)[C@@H](C)C2)s1
(Q) CCC1=C(C)CN(C(=O)NCCc2ccc(S(=O)(=O)NC(=O)N[C@H]3CC[C@H](C)CC3)cc2)C1=O
(R) C[C@@H]1Cc2ccccc2N1C(=O)Cn1nc(-c2cccc3ncccc23)oc1=O
(S) Cc1c(-c2c(F)cc(C(N)=O)c3[nH]c4c(c23)CC[C@H](C(C)(C)O)C4)cccc1-n1c(=O)c2cccc(F)c2n(C)c1=O
(T) CC(=O)Nc1ncc(CN2CCCC[C@@H]2C)s1
[Q] Rank by decreasing fraction unbound, human plasma the items listed here. Write the labels in rank order as requested.
[A] T, P, S, R, Q
(T: 1, P: 0.16, S: 0.0273, R: 0.0168, Q: 0.00066)

(I) CCn1c(=O)oc2cc(NC(=O)c3ccc(C(C)(C)C)cc3)ccc21
(II) Cn1cc(Nc2nccc(N3CC4CCC(C3)N4C(=O)[C@@H]3CC3(F)F)n2)cn1
[Q] Rank I against II by their fraction unbound, human plasma values and give the higher one. # answer = label of selected item
[A] II
(II: 0.44, I: 0.0162)

(I) N#Cc1ccc(COc2cccc(C3CCN(Cc4nc5ccc(C(=O)O)cc5n4C[C@@H]4CCO4)CC3)n2)c(F)c1
(II) COc1cc2nc(-c3cc(F)ccc3O)nc(N[C@@H]3CNC[C@H]3C(C)(C)O)c2cc1OC.Cl
[Q] In the pair I and II , the larger recorded fraction unbound, human plasma belongs to which? Write down the label of the entry you select.
[A] I
